Recorded values, source paper PMC8268887.

Tested on: P. aeruginosa NMI 7197/19
Assay type: cell-based, Pseudomonas aeruginosa
Conditions: NMI 7197/19, 20 h
Description: MIC values of the peptidomimetics were evaluated by using the modified Hancock lab protocol in non-binding polystyrene microtiter plates. Bacterial suspensions of ~5 × 10^5 CFU/mL in Mueller-Hinton broth (Difco, Sparks, MD, USA) were prepared with Mg^2+ and Ca^2+ concentrations of 4 mg/L each. […] Following incubation for 20 h of the covered plates at 35 °C (±2 °C) with circular shaking at 180 rpm, the MICs were read.
Outcome measure: MIC, P. aeruginosa NMI 7197/19

Compound: NCCCC[C@H](NC(=O)CCN(Cc1ccc(F)cc1)C(=O)[C@H](CCCCN)NC(=O)CCN(Cc1ccc(F)cc1)C(=O)[C@H](CCCCN)NC(=O)COCCN)C(=O)N(CCC(=O)NCCOCC(=O)N[C@@H](CCCCN)C(=O)N(CCC(=O)N[C@@H](CCCCN)C(=O)N(CCC(=O)N[C@@H](CCCCN)C(=O)N(CCC(=O)NCCOCC(N)=O)Cc1ccc(F)cc1)Cc1ccc(F)cc1)Cc1ccc(F)cc1)Cc1ccc(F)cc1 [Compound 11, H-sPEG1-[X]3-sPEG1-[X]3-sPEG1-NH2]
MIC, P. aeruginosa NMI 7197/19: >64 µg/mL
//
Compound: NCCCC[C@H](NC(=O)CCN(Cc1ccc(F)cc1)C(=O)[C@H](CCCCN)NC(=O)COCCOCCNC(=O)CCN(Cc1ccc(F)cc1)C(=O)[C@H](CCCCN)NC(=O)CCN(Cc1ccc(F)cc1)C(=O)[C@H](CCCCN)NC(=O)COCCOCCNC(=O)CCN(Cc1ccc(F)cc1)C(=O)[C@H](CCCCN)NC(=O)CCN(Cc1ccc(F)cc1)C(=O)[C@@H](N)CCCCN)C(=O)N(CCC(N)=O)Cc1ccc(F)cc1 [Compound 16, H-[X]2-sPEG2-[X]2-sPEG2-[X]2-NH2]
MIC, P. aeruginosa NMI 7197/19: >64 µg/mL

Let us examine a further case.
compound NCCCC[C@H](NC(=O)CCN(Cc1ccc(F)cc1)C(=O)[C@H](CCCCN)NC(=O)CCN(Cc1ccc(F)cc1)C(=O)[C@H](CCCCN)NC(=O)COCCOCCN)C(=O)N(CCC(=O)NCCOCCOCC(=O)N[C@@H](CCCCN)C(=O)N(CCC(=O)N[C@@H](CCCCN)C(=O)N(CCC(=O)N[C@@H](CCCCN)C(=O)N(CCC(=O)NCCOCCOCC(N)=O)Cc1ccc(F)cc1)Cc1ccc(F)cc1)Cc1ccc(F)cc1)Cc1ccc(F)cc1 [Compound 12, H-sPEG2-[X]3-sPEG2-[X]3-sPEG2-NH2] , MIC, P. aeruginosa NMI 7197/19 observed: >64 µg/mL

###

experiment: Hydrophobicity by retention in analytical RP-HPLC (% MeCN at peak elution); format: physicochemical; details: Phenomenex Luna Omega Polar C18 column; gradient 0→60% B during 15 min
Outcome measure: % MeCN at Elution, Luna Omega (% MeCN)
// units = % MeCN; emit number, no label

compound NCCCC[C@H](NC(=O)CCN(Cc1ccc(F)cc1)C(=O)[C@H](CCCCN)NC(=O)CCN(Cc1ccc(F)cc1)C(=O)[C@H](CCCCN)NC(=O)COCCOCCOCCNC(=O)CCN(Cc1ccc(F)cc1)C(=O)[C@H](CCCCN)NC(=O)CCN(Cc1ccc(F)cc1)C(=O)[C@H](CCCCN)NC(=O)CCN(Cc1ccc(F)cc1)C(=O)[C@@H](N)CCCCN)C(=O)N(CCC(N)=O)Cc1ccc(F)cc1 [Compound 8, H-[X]3-sPEG3-[X]3-NH2] , % MeCN at Elution, Luna Omega observed: 42.1
